Origin of values: PubChem BioAssay (NCI)

System: RXF 393 renal
Method Summary: NCI-60 one-dose screen, 48 h
Measurement Setup: 10 µM unless noted
Protocol: Cells are grown in 96 well plates and exposed to the test compound for 48 hours. Compounds are tested at a single concentration, which is 10^-5 M for most compounds. The reported endpoint is percent growth (GI% or GIPRCNT), where numbers from 0 - 100% represent growth inhibition, and numbers from -100% - 0 represent cell death. For example, a value of 40 represents 60% growth inhibition. A value of 0 means no net growth occurred over the course of the experiment. […]
This is part of a sample that, as a whole, favours compounds with a hit. Of some 83,000 tested, about 20% had one in any assay. Active and inactive are the calls of the source. Rule for the calls: active = growth percent below 10; inactive = the rest.
Just give me one of these, please: active, inactive

Check out these entries, answers already filled in.
CCCCCCOc1ccc(/C=N/NC(N)=S)cc1 ... inactive
CN(C)c1ccc2[nH]c3c(C(N)=O)cc(=O)c(=O)c=3oc2c1 ... inactive
O=C(C(Br)Br)C(Br)C(Br)c1ccccc1 (configuration not stated) ... inactive
Clc1ccc(-n2cnc3c(Cl)ncnc32)cc1Cl ... inactive
O=c1c(O)cccn1CCCNCCCN(CCCn1cccc(O)c1=O)CCCn1cccc(O)c1=O ... inactive

INPUT: Dear colleague, could you share the recorded outcome for "CC/C(=C\c1ccc(N(C)C)cc1)c1nc2ccccc2c(=O)[nH]1" when you have a moment?
OUTPUT: inactive

INPUT: Dear colleague, could you share the recorded outcome for "COc1ccc2c(c1)C(=O)c1c-2c(=O)n(CCCCCCC(=O)NO)c2ccccc12" when you have a moment?
OUTPUT: active

INPUT: Dear colleague, could you share the recorded outcome for "O=C1Cc2cc(CCn3cncn3)c(Cl)cc2N1" when you have a moment?
OUTPUT: inactive

INPUT: Dear colleague, could you share the recorded outcome for "Cc1scc2c1N(C(=O)CN1CCN(C)CC1)c1ccccc1NC2=O" when you have a moment?
OUTPUT: inactive

INPUT: Dear colleague, could you share the recorded outcome for C=C(C)[C@H]1CC/C(C)=C/CC[C@]2(C)O[C@H]2CC/C(C=O)=C\C1O (some centres not stated) when you have a moment?
OUTPUT: inactive

INPUT: Dear colleague, could you share the recorded outcome for "C=C(C)[C@H]1CC/C(C)=C/CC[C@]2(C)O[C@H]2CC/C(COC(C)=O)=C\C1=O" when you have a moment?
OUTPUT: inactive

INPUT: Dear colleague, could you share the recorded outcome for "CCCCCCCCCCCCNc1ncnc2[nH]ncc12" when you have a moment?
OUTPUT: inactive

INPUT: Dear colleague, could you share the recorded outcome for "CC[C@H](C)C(=O)O[C@H]1C[C@@H](C)C=C2C=C[C@H](C)[C@H](CC[C@@H]3C[C@@H](O)CC(=O)O3)[C@H]21" when you have a moment?
OUTPUT: inactive

INPUT: Dear colleague, could you share the recorded outcome for "Cc1ccc2c(c1)C(=O)/C(=C/c1ncc([N+](=O)[O-])n1C)O2" when you have a moment?
OUTPUT: active

INPUT: Dear colleague, could you share the recorded outcome for "O=C1OCC/C1=C\OCCCO/C=C1\CCOC1=O" when you have a moment?
OUTPUT: inactive

INPUT: Dear colleague, could you share the recorded outcome for "Clc1ncn[nH]1" when you have a moment?
OUTPUT: inactive

INPUT: Dear colleague, could you share the recorded outcome for "CCCCCCCCSc1ncnc2c1ncn2CO" when you have a moment?
OUTPUT: inactive

---

System: SNB-19 CNS
Method Summary: NCI-60 one-dose screen, 48 h (100 = growth as untreated, 0 = no growth, -100 = all killed)
Measurement Setup: 10 µM unless noted
The panel holds about 83,000 compounds, 20% with a hit somewhere; the sample as a whole holds those more often.
Measured Parameter: growth (%)
Express your answer in %, writing the number without its unit.

For orientation, consider the following solved cases.
CCOC(=O)c1c2c(c(C)n1Cc1ccccc1)-c1nc(N)ncc1CC2 ... 101
CC(=O)O[C@H]1C(=O)[C@@]2(C)C([C@H](OC(=O)c3ccccc3)[C@]3(O)C[C@H](OC(=O)[C@H](O)[C@@H](NC(=O)c4ccccc4)c4ccccc4)C(C)=C1C3(C)C)[C@]1(OC(C)=O)CO[C@@H]1C[C@@H]2O (stereo not given in full) ... 36.2
O=C1/C(=C/c2ccc([N+](=O)[O-])o2)Oc2ccc(Br)cc21 ... 105
O=[N+]([O-])c1cnc(Sc2ccncn2)c([N+](=O)[O-])c1 ... 102
COc1cccc2c1O/C(=C\c1c([N+](=O)[O-])ncn1C)C2=O ... 106

INPUT: Given the entry "O=[N+]([O-])c1ccc(N/N=C\c2ccccc2[N+](=O)[O-])nc1" , report its measured growth.
OUTPUT: 99.4

INPUT: Given the entry O=C(C(=O)N1CCOCC1)c1ccc(OC2OC(CO)C(O)C(O)C2O)cc1 (stereo not given) , report its measured growth.
OUTPUT: 102

INPUT: Given the entry CCCCCCC(C)(O)c1ccccc1 (stereo not given) , report its measured growth.
OUTPUT: 104

INPUT: Given the entry "CC(C)(C)c1cc(O)c(O)c(C(C)(C)C)c1" , report its measured growth.
OUTPUT: 56.9

INPUT: Given the entry COc1cccc(C2C(C#N)=C(N)Oc3cc(OC)ccc32)c1 (stereo not given) , report its measured growth.
OUTPUT: 44.1

INPUT: Given the entry "Cc1c(C(N)=O)sc2c1c(=O)n(Cc1ccccc1)c1nnc(S(=O)(=O)CC(=O)Nc3ccc(Cl)cc3)n21" , report its measured growth.
OUTPUT: 64.9

INPUT: Given the entry CC12CCCCC1C(C(N)=O)C(=O)O2 (stereo not given) , report its measured growth.
OUTPUT: 100

INPUT: Given the entry "Clc1nc(Cl)c2ncn(-c3ccccc3)c2n1" , report its measured growth.
OUTPUT: 103

INPUT: Given the entry "Cc1nc2c(O)cccc2cc1CO" , report its measured growth.
OUTPUT: 104

INPUT: Given the entry "COC(=O)[C@]1(CCSC)N[C@H](c2cn(-c3ccccc3)nc2C)[C@@H]2C(=O)N(c3ccccc3)C(=O)[C@@H]21" , report its measured growth.
OUTPUT: 109

---

System: EKVX NSCLC
Method Summary: NCI-60 one-dose screen, 48 h (100 = growth as untreated, 0 = no growth, -100 = all killed)
Measurement Setup: 10 µM unless noted
About 83,000 compounds went through this panel and 20% of them were active in at least one assay; those are over-represented in the sample as a whole.
Please respond with class 1 when measured growth is strictly beneath 70%, and with class 0 in all other cases.

CCCCCCCC/C=C/CCCCCCCC1=NC(C)(C)CN1CCO ... class 1
Cc1nn(-c2ccc(Cl)cc2)c2nc3c(nc12)c(=O)oc1ccccc13 ... class 0
CSc1ccc2c(c1)N(CCC1CCCCN1C)c1ccccc1S2 (configuration not stated) ... class 1

INPUT: Consider the compound "CN(CC(=O)Nc1nc2ccccc2[nH]1)S(=O)(=O)c1ccc(Cl)cc1" . Is its growth strictly less than 70%?
OUTPUT: class 0

INPUT: Consider the compound "NC(=O)c1ncn([C@@H]2O[C@H](CO)[C@@H](O)[C@H]2O)n1" . Is its growth strictly less than 70%?
OUTPUT: class 0

---

The entries below are paired with their reported growth.
Test system: SK-MEL-2 melanoma
Method Summary: NCI-60 one-dose screen, 48 h (100 = growth as untreated, 0 = no growth, -100 = all killed)
Measurement Setup: 10 µM unless noted
This is part of a sample that, as a whole, favours compounds with a hit. Of some 83,000 tested, about 20% had one in any assay. The source made the active and inactive calls. How the source made its calls: active means growth percent below 10; inactive means the rest.

For orientation, consider the following solved cases.
COc1ccc(C(=O)/C=C/c2c(Cl)nc3c(c(C)nn3-c3ccccc3)c2-c2ccc(Br)cc2)cc1 ... 93.8% (inactive)
CC(C)COCC(CN(Cc1ccccc1)c1ccccc1)N1CCCC1 (stereo unspecified) ... 77.2% (inactive)
Nc1ccc(C2=Nc3cccc4cccc(c34)S2)cc1 ... 87.5% (inactive)

INPUT: Given the entry "NC(=Nc1ccccc1)SCCCCSC(N)=Nc1ccccc1" , report its measured growth.
OUTPUT: 98.5% (inactive)

INPUT: Given the entry "c1ccc(-c2nn[nH]n2)c(-c2ccc(CN3CCN(c4nsc5ccccc45)CC3)cc2)c1" , report its measured growth.
OUTPUT: 120% (inactive)

INPUT: Given the entry "O=C(/C=C/c1cc2ccccc2[nH]c1=O)c1ccc(Cl)cc1" , report its measured growth.
OUTPUT: 18.8% (inactive)

INPUT: Given the entry "O=Nc1ccc(O)c(=O)cc1" , report its measured growth.
OUTPUT: 71.4% (inactive)

INPUT: Given the entry "O=C1N(C2CCCCC2)C(=O)N1C1CCCCC1" , report its measured growth.
OUTPUT: -7.37% (active)

INPUT: Given the entry "COc1ccc(-c2cc(C(=O)Nc3nc4cc(C)c(C)cc4s3)nc3cc(-c4ccccc4)nn23)cc1OC" , report its measured growth.
OUTPUT: 113% (inactive)

INPUT: Given the entry "Clc1nc(Cl)c2ncn(-c3ccccc3)c2n1" , report its measured growth.
OUTPUT: 17.8% (inactive)

INPUT: Given the entry "Clc1ccc2c(Nc3ccc4oc(NCCN5CCCC5)nc4c3)ccnc2c1" , report its measured growth.
OUTPUT: 105% (inactive)
